TARGET UNDER TEST: T1, EsCas13d, nuclease-dead (Eubacterium siraeum, UniProt B0MS50, R295A;H300A;R849A;H854A)
T1 sequence: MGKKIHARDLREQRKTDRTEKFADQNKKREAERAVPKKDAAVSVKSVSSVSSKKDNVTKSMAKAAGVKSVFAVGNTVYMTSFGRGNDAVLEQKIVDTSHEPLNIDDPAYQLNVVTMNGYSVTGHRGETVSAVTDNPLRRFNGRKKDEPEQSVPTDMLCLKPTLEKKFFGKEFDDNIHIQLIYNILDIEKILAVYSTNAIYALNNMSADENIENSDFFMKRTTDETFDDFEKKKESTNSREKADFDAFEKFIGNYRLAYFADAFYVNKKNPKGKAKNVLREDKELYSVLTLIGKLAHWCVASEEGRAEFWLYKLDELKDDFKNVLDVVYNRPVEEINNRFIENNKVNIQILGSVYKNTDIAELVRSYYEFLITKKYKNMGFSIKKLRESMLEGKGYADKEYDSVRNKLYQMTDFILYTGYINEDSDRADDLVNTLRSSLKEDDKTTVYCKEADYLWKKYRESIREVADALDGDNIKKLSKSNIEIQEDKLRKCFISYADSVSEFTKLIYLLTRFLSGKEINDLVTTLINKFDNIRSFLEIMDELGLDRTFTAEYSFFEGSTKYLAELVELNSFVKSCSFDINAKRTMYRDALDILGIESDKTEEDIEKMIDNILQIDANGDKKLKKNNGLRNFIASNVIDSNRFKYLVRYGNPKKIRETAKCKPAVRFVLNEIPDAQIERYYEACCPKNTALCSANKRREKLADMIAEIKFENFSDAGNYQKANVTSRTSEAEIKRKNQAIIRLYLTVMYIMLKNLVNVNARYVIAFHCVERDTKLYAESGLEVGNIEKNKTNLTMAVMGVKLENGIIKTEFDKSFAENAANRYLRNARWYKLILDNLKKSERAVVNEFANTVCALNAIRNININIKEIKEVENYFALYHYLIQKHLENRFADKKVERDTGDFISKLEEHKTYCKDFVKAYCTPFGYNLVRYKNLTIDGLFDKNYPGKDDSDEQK
EXPERIMENT DESCRIPTION: crRNA (strand 1, pre-loaded); Mg2+; 40 mM Tris-HCl pH 7.5, 150 mM NaCl, 6 mM MgCl2, 1 mM DTT, 0.1% Tween-20, 0.2 mg/ml BSA; 25 C; 10 min per concentration, then washed
TEST PARAMETERS: tags: His6-TwinStrep-SUMO cleaved; N-terminal SNAP kept (SNAP-Surface 488); label: 3' end held by stalled T7 RNA polymerase
Would you mind telling me the reported pKd of each entry?
Reminder that pKd means the negative base-10 logarithm of the concentration expressed in mol/L.

// recorded pKd for target 1 U11G,G17A (mixed) RNA 1: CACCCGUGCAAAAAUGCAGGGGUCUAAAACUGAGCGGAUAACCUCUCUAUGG RNA 2: GGGAAUGGAUCCACAUCUACGAAUUCGUACCAUAAAGAGGGUAUCCGCUCACCGAGAUCGGAAGAGCACACGU : 7.13

Per the record, target 1 insA 3' of 11,insC 3' of 3 (mixed) RNA 1: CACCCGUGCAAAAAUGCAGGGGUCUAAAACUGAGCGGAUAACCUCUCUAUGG RNA 2: GGGAAUGGAUCCACAUCUACGAAUUCGUACCAUAGAGAGGUAUAUCCGCUCCACCGAGAUCGGAAGAGCACACGU has pKd of 7.86
